System Under Test: FASN enzyme (Homo sapiens, UniProt P49327)
Sequence (P49327 whole entry): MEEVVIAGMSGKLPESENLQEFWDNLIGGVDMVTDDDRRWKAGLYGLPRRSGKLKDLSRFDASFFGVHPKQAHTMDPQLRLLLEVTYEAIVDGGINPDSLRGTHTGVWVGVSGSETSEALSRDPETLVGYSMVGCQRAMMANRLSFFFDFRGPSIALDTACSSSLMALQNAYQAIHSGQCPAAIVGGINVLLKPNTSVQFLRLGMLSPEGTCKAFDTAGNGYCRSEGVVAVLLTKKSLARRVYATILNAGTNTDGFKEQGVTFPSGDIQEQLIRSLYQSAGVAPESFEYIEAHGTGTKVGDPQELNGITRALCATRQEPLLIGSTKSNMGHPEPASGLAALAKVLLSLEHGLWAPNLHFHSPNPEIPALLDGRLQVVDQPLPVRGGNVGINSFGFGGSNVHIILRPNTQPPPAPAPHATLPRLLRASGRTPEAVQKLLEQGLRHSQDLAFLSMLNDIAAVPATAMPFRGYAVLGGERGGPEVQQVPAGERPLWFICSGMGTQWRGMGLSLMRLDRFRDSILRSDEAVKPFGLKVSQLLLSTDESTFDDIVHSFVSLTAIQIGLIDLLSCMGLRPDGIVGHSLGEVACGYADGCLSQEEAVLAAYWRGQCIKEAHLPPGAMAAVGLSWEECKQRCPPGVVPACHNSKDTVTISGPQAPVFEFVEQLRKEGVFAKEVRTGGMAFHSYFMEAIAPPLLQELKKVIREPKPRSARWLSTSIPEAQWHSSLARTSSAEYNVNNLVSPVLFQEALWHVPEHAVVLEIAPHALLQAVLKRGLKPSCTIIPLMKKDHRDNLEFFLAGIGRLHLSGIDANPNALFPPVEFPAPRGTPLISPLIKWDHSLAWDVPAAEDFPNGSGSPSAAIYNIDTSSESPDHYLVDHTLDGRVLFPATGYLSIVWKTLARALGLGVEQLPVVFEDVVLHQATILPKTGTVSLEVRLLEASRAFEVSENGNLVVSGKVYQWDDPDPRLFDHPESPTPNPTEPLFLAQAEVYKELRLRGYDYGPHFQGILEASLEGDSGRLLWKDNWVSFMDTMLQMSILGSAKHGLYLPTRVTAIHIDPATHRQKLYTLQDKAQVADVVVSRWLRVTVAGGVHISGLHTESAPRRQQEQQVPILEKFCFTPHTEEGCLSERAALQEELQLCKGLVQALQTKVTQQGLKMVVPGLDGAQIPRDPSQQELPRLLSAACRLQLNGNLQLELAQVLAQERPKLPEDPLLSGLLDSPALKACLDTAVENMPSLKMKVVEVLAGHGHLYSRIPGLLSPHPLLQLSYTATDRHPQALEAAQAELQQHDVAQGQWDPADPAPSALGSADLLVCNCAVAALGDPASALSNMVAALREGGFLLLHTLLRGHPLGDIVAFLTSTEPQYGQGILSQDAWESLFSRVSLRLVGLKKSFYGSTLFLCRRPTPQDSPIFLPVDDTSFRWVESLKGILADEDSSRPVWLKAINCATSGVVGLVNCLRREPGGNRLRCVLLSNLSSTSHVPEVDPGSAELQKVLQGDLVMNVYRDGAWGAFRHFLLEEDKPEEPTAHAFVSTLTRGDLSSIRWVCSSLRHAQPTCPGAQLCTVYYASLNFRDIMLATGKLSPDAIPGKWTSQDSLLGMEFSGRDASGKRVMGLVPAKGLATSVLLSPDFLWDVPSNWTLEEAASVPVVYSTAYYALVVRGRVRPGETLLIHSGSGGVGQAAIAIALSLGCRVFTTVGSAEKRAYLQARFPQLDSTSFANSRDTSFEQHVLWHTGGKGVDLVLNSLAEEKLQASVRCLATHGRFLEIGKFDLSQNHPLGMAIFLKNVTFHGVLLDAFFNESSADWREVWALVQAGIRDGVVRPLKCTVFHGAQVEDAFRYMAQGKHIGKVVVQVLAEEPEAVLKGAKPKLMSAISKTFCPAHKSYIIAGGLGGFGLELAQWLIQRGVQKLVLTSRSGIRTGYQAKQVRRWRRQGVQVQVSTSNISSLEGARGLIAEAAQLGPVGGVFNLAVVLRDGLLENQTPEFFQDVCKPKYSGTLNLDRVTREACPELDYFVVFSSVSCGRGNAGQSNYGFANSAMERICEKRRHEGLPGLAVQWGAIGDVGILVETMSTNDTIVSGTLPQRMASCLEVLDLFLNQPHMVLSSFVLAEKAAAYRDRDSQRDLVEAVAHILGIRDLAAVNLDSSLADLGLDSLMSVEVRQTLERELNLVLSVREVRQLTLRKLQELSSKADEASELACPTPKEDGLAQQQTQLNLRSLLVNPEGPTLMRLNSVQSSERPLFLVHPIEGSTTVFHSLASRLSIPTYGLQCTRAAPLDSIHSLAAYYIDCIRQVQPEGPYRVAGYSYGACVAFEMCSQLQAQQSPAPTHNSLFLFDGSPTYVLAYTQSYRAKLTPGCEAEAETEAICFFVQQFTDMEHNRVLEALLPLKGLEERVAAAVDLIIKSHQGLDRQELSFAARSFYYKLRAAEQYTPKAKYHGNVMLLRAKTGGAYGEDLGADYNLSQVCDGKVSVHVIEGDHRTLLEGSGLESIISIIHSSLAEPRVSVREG
Measurement Description: Enzymatic Assay for FASN Inhibitors
Format: biochemical
Reported IC50 by item:

Below, each entry is followed by its recorded IC50 result.
# Compound Structure String, System Under Test, IC50
measured = [
    ("C[C@@H]1CN(C(=O)c2ccc(-c3ccc4c(c3)ncn4C)cc2)CCN1C(=O)C1(O)CC1", "FASN enzyme (Homo sapiens, UniProt P49327)", "< 500 nM"),
    ("O=C(c1ccc(-c2cccc(NS(=O)(=O)C3CCCC3)c2)cc1)N1CCN(C(=O)C2(O)CC2)CC1", "FASN enzyme (Homo sapiens, UniProt P49327)", "< 500 nM"),
    ("Cn1ncc2ccc(-c3ccc(C(=O)N4CCN(C(=O)C5(N)CCC5)CC4)cc3)cc21", "FASN enzyme (Homo sapiens, UniProt P49327)", "< 500 nM"),
    ("O=C(c1ccc(-c2cccc(NS(=O)(=O)c3ccccc3)c2)cc1)N1CCN(C(=O)C2(O)CC2)CC1", "FASN enzyme (Homo sapiens, UniProt P49327)", "< 500 nM"),
]

Moving on to another compound below.
Task: Which measured IC50 belongs to "O=C(c1ccc(-c2ccc3cc(F)ccc3n2)cc1F)N1CCN(C(=O)C2(O)CC2)CC1" , tested on FASN enzyme (Homo sapiens, UniProt P49327)?
Output: < 500 nM
